Values compiled from ChEMBL document CHEMBL4145594.

# assayedTarget: Mu-type opioid receptor (Homo sapiens, UniProt P35372)
# Sequence (P35372 whole entry): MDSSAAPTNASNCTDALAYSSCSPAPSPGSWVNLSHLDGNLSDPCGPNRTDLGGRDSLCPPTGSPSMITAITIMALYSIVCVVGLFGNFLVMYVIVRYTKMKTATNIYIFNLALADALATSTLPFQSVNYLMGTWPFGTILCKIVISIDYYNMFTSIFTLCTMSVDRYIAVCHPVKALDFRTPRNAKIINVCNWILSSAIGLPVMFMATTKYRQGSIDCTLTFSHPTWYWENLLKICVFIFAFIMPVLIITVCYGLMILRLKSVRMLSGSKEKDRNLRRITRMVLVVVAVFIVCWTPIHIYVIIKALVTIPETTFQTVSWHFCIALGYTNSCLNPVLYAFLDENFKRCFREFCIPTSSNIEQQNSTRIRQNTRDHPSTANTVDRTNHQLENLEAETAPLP
measure: pIC50
One number for each entry, as −log10 of the molar value.

givenSmiles: NCCCCN(C[C@H]1Cc2ccccc2CN1)[C@H]1CCCc2cccnc21
reportedMeasurement: 4.83

Q. Report pIC50 for c1ccc2c(c1)CN[C@@H](CN(CC[C@H]1CCCNC1)[C@H]1CCCc3cccnc31)C2 tested on Mu-type opioid receptor (Homo sapiens, UniProt P35372).
A. 4.95

====

# assayDetails: Stability in human liver microsomes assessed as parent compound remaining at 0.5 uM after 10 mins by LC-MS analysis
measure: remaining at 10 min, 0.5 µM (%)
Answers are plain numbers, in %.

compound: c1cnc2c(c1)CCC[C@@H]2N(CCCN1CCNCC1)Cc1nc2ccccc2[nH]1
reportedMeasurement: 63

compound: c1ccc2c(c1)CN[C@@H](CN(CCCCN1CCNCC1)[C@H]1CCCc3cccnc31)C2
reportedMeasurement: 82

compound: NC(=O)N1CCN(CCCN(C[C@H]2Cc3ccccc3CN2)[C@H]2CCCc3cccnc32)CC1
reportedMeasurement: 79

compound: c1ccc2c(c1)CN[C@@H](CN(CCN1CCNCC1)[C@H]1CCCc3cccnc31)C2
reportedMeasurement: 96

compound: c1ccc2c(c1)CN[C@@H](CN(CC1CCNCC1)[C@H]1CCCc3cccnc31)C2
reportedMeasurement: 86

For each entry beneath this line, provide reported remaining at 10 min, 0.5 µM.
1. c1ccc2c(c1)CN[C@H](CN(CCCN1CCNCC1)[C@H]1CCCc3cccnc31)C2
2. CN1CCN(CCCN(CC2Cc3ccccc3CN2C)[C@H]2CCCc3cccnc32)CC1 (single isomer, unassigned)
3. CC(C)N1CCN(CCCN(C[C@H]2Cc3ccccc3CN2)[C@H]2CCCc3cccnc32)CC1
4. CN1CCN(CCCN(C[C@H]2Cc3ccccc3CN2)[C@H]2CCCc3cccnc32)CC1
5. c1ccc2c(c1)CN[C@@H](CN(CC[C@H]1CCCNC1)[C@H]1CCCc3cccnc31)C2
6. c1cnc2c(c1)CN[C@H](CN(CCCN1CCNCC1)[C@H]1CCCc3cccnc31)C2

A.
[99, 60, 46, 72, 93, 100]

For each of the items listed, what is its remaining at 10 min, 0.5 µM?
1. c1cnc(CN(CCCN2CCNCC2)[C@H]2CCCc3cccnc32)nc1
2. c1cnc2c(c1)CCC[C@@H]2N(CCCN1CCNCC1)Cc1nc2ccccc2s1

A.
1. 100
2. 50

====

Please provide measured Papp at 4 h for the entries that follow.
# assayDetails: in vitro
# measurementContext: PAMPA, pH 7.4
# Description: Permeability of the compound at pH 7.4 after 4 hrs by PAMPA
Give bare numbers, in ×10⁻⁶ cm/s.

compound: CN1CCN(CCCN(C[C@H]2Cc3ccccc3CN2)[C@H]2CCCc3cccnc32)CC1
Papp at 4 h, ×10⁻⁶ cm/s: 36
--
compound: CN1CCN(CCCN(CC2Cc3ccccc3CN2C)[C@H]2CCCc3cccnc32)CC1 (single isomer, unassigned)
Papp at 4 h, ×10⁻⁶ cm/s: 51.3
--
compound: c1ccc2c(c1)CN[C@@H](CN(CCCN1CCN(C3CC3)CC1)[C@H]1CCCc3cccnc31)C2
Papp at 4 h, ×10⁻⁶ cm/s: 50.5
--
compound: CC(C)N1CCN(CCCN(C[C@H]2Cc3ccccc3CN2)[C@H]2CCCc3cccnc32)CC1
Papp at 4 h, ×10⁻⁶ cm/s: 34.4

Provide reported Papp at 4 h for each item, in the same order as listed.
1. c1cnc2c(c1)CCC[C@@H]2N(CCCN1CCNCC1)Cc1nc2ccccc2[nH]1
2. c1ccc2c(c1)CN[C@@H](CN(CCN1CCNCC1)[C@H]1CCCc3cccnc31)C2
3. c1cnc2c(c1)CCC[C@@H]2N(CCCN1CCNCC1)Cc1cc2ccccc2cn1
4. c1ccc2c(c1)CN[C@@H](CN(CC[C@H]1CCCNC1)[C@H]1CCCc3cccnc31)C2
5. c1ccc2c(c1)CN[C@@H](CN(CCCCN1CCNCC1)[C@H]1CCCc3cccnc31)C2

A.
1. 14.6
2. 1
3. 24.3
4. 5.5
5. 1.4

====

Provide the recorded IC50 for the entries that follow.
# assayedTarget: Muscarinic acetylcholine receptor
# assayDetails: Antagonist activity at mAChR in human CCRF-CEM cells assessed as inhibition of acetylcholine-induced calcium flux pretreated for 25 mins followed by acetylcholine addition measured for 90 secs by calcium-dye based assay
# Format: functional, cell-based

Solved cases below.
compound: c1ccc2c(c1)CN[C@@H](CN(CCCN1CCN(C3CC3)CC1)[C@H]1CCCc3cccnc31)C2
IC50: > 17 µM
--
compound: CN1CCN(CCCN(CC2Cc3ccccc3CN2C)[C@H]2CCCc3cccnc32)CC1 (single isomer, unassigned)
IC50: > 17 µM
--
compound: c1ccc2c(c1)CN[C@@H](CN(CCCN1CCNCC1)[C@H]1CCCc3cccnc31)C2
IC50: > 14 µM
--
compound: c1cnc2c(c1)CCC[C@@H]2N(CCCN1CCNCC1)Cc1cc2ccccc2cn1
IC50: 3.2 µM
--
compound: CC(C)N1CCN(CCCN(C[C@H]2Cc3ccccc3CN2)[C@H]2CCCc3cccnc32)CC1
IC50: > 17 µM

# batch: return IC50 for each of the 7 compounds below
1. c1ccc2c(c1)CN[C@@H](CN(CC[C@H]1CCCNC1)[C@H]1CCCc3cccnc31)C2
2. c1ccc2c(c1)CN[C@H](CN(CCCN1CCNCC1)[C@H]1CCCc3cccnc31)C2
3. NCCCCN(Cc1nc2ccccc2[nH]1)[C@H]1CCCc2cccnc21
4. c1ccc2c(c1)CN[C@@H](CN(CCC1CCNCC1)[C@H]1CCCc3cccnc31)C2
5. c1cnc(CN(CCCN2CCNCC2)[C@H]2CCCc3cccnc32)nc1
6. c1ccc2c(c1)CN[C@@H](CN(CCN1CCNCC1)[C@H]1CCCc3cccnc31)C2
7. c1ccc2c(c1)CN[C@@H](CN(CC[C@@H]1CCCNC1)[C@H]1CCCc3cccnc31)C2

A.
["> 14 µM", "> 17 µM", "> 17 µM", "> 14 µM", "> 17 µM", "> 14 µM", "> 14 µM"]

====

# assayedTarget: C-X-C chemokine receptor type 4 (Homo sapiens)
# Sequence (P61073 whole entry): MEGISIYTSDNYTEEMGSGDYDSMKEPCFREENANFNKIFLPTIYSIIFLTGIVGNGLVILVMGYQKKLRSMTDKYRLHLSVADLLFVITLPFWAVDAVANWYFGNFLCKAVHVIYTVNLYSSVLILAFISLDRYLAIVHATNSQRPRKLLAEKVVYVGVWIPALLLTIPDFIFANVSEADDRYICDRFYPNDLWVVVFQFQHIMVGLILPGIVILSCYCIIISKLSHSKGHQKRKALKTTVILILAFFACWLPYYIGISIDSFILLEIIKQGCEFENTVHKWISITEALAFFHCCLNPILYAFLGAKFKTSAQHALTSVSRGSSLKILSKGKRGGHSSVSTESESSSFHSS
# assayDetails: Antagonist activity at CXCR4 in human CCRF-CEM cells assessed as inhibition of […]-induced calcium flux pretreated for 25 mins followed by […] addition measured for 90 secs by calcium-dye based assay
Binning rule for recorded IC50: group A = under 60 nM, group B = from 60 nM up to 200 nM, group C = 200 nM and over

compound: c1ccc2c(c1)CN[C@@H](CN(CC1CCNCC1)[C@H]1CCCc3cccnc31)C2
category: group B
--
compound: c1ccc2c(c1)CN[C@@H](CN(CCCN1CCNCC1)[C@H]1CCCc3cccnc31)C2
category: group A
--
compound: c1ccc2c(c1)CN[C@@H](CN(CCCCN1CCNCC1)[C@H]1CCCc3cccnc31)C2
category: group B

Q. Each compound maps to one class by IC50. Which class for c1cnc2c(c1)CN[C@@H](CN(CCCN1CCNCC1)[C@H]1CCCc3cccnc31)C2 ?
A. group B

====

pIC50: −log10 of the molar value.
Assay read-out pIC50; system under study: Cytochrome P450 3A4 (Homo sapiens, UniProt P08684).
Sequence (P08684 whole entry): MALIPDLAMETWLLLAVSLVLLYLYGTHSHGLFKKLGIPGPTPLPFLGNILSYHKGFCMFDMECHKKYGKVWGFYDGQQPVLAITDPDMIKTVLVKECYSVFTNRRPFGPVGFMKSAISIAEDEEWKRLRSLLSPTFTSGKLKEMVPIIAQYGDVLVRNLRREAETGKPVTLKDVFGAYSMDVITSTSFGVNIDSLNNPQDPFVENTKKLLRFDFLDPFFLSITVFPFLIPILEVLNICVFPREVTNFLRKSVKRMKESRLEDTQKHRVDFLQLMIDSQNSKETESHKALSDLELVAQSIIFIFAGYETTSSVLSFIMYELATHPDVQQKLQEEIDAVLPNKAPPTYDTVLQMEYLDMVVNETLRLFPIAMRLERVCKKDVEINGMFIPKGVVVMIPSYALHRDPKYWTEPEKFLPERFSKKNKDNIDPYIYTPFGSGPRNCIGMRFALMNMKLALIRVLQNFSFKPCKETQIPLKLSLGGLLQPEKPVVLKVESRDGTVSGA

Completed entries (count: 2):
givenSmiles: c1ccc2c(c1)CN[C@@H](CN(CCCN1CCNCC1)[C@H]1CCCc3cccnc31)C2
pIC50: < 4.92
--
givenSmiles: c1ccc2c(c1)CN[C@@H](CN(CCCN1CCN(C3CC3)CC1)[C@H]1CCCc3cccnc31)C2
pIC50: < 4.70

Value sought for every listed compound: pIC50.
1. c1ccc2c(c1)CN[C@H](CN(CCCN1CCNCC1)[C@H]1CCCc3cccnc31)C2
2. c1cnc(CN(CCCN2CCNCC2)[C@H]2CCCc3cccnc32)nc1
3. c1ccc2c(c1)CN[C@@H](CN(CC[C@@H]1CCCNC1)[C@H]1CCCc3cccnc31)C2

A.
["< 4.70", "< 4.70", "< 4.92"]

====

Record form. Attribute: IC50. Fill in for each entry.
# assayedTarget: Acetylcholine receptor subunit alpha (Homo sapiens, UniProt P02708)
# Sequence (P02708 whole entry): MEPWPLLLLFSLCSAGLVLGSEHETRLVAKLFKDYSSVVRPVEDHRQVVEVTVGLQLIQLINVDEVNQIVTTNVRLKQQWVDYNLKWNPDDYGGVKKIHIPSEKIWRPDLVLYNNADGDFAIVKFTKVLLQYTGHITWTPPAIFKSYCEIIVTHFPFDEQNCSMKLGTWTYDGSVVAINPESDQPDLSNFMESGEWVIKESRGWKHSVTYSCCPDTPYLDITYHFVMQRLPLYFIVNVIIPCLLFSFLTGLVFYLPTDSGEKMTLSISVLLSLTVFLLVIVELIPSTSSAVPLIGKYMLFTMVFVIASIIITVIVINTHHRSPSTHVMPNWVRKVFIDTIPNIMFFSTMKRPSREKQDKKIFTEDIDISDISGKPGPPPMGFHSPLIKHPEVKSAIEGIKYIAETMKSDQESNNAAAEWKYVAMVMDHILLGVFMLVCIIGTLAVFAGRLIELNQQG
# assayDetails: Inhibition of nAChR alpha1 (unknown origin)

givenSmiles: c1ccc2c(c1)CN[C@@H](CN(CC[C@H]1CCCNC1)[C@H]1CCCc3cccnc31)C2
IC50: 11.3 µM

givenSmiles: NCCCCN(C[C@H]1Cc2ccccc2CN1)[C@H]1CCCc2cccnc21
IC50: > 30 µM

// next entry
Q. Please give the measured IC50 for this compound: c1ccc2c(c1)CN[C@@H](CN(CCCN1CCNCC1)[C@H]1CCCc3cccnc31)C2
A. > 30 µM

====

For each of the molecules below, state its remaining at 10 min, 0.5 µM.
# assayDetails: Stability in mouse liver microsomes assessed as parent compound remaining at 0.5 uM after 10 mins by LC-MS analysis
Answers are plain numbers, in %.

Use these answered entries as a reference point.
molecule: CC(C)N1CCN(CCCN(C[C@H]2Cc3ccccc3CN2)[C@H]2CCCc3cccnc32)CC1
outputUnit: %
reportedMeasurement: 58
--
molecule: CN1CCN(CCCN(C[C@H]2Cc3ccccc3CN2)[C@H]2CCCc3cccnc32)CC1
outputUnit: %
reportedMeasurement: 53
--
molecule: c1ccc2c(c1)CN[C@@H](CN(CCCCN1CCNCC1)[C@H]1CCCc3cccnc31)C2
outputUnit: %
reportedMeasurement: 96
--
molecule: c1ccc2c(c1)CN[C@@H](CN(CCCN1CCN(C3CC3)CC1)[C@H]1CCCc3cccnc31)C2
outputUnit: %
reportedMeasurement: 3
--
molecule: NC(=O)N1CCN(CCCN(C[C@H]2Cc3ccccc3CN2)[C@H]2CCCc3cccnc32)CC1
outputUnit: %
reportedMeasurement: 42
--
molecule: c1ccc2c(c1)CN[C@H](CN(CCCN1CCNCC1)[C@H]1CCCc3cccnc31)C2
outputUnit: %
reportedMeasurement: 88

Please report remaining at 10 min, 0.5 µM for every entry that follows.
1. c1cnc2c(c1)CCC[C@@H]2N(CCCN1CCNCC1)Cc1nc2ccccc2[nH]1
2. c1ccc2c(c1)CN[C@@H](CN(CC[C@H]1CCCNC1)[C@H]1CCCc3cccnc31)C2
3. c1cnc2c(c1)CCC[C@@H]2N(CCCN1CCNCC1)Cc1cc2ccccc2cn1

A.
68
56
74

Quick batch: remaining at 10 min, 0.5 µM for everything below.
1. CN1CCN(CCCN(CC2Cc3ccccc3CN2C)[C@H]2CCCc3cccnc32)CC1 (single isomer, unassigned)
2. c1ccc2c(c1)CN[C@@H](CN(CCN1CCNCC1)[C@H]1CCCc3cccnc31)C2

A.
1: 43; 2: 79
